# Tested on: MLKL phosphorylation in HT29-L23 human colorectal adenocarcinoma cells
# test.name: MLKL Phosphorylation High-Content Assay
# Assay type: cell-based
# condition: Homo sapiens, x marks IC50 class 20-200 nM, read-out: pMLKL cell activity 20-200 nM
observed.property: IC50

molecule	target	IC50
COc1ncc(-c2ccn3nc(N)nc3c2)cc1C(=O)NCc1cc(F)cc(F)c1OC1CCCOC1 (stereo not shown) [Example 342]	MLKL phosphorylation in HT29-L23 human colorectal adenocarcinoma cells	20 to 200 nM

Which IC50 is listed for Cc1nc(C)c(-c2ccn3nc(N)nc3c2)cc1C(=O)NCc1cccnc1OCC1CCCC1 [Example 183] ?
20 to 200 nM

Could you share which IC50 value was measured for Cc1nc(C)c(-c2ccn3nc(N)nc3c2)cc1C(=O)NCc1ncccc1OCC1CCCC1 [Example 182] ?
20 to 200 nM

Quick one: IC50 of C[C@@H](NC(=O)c1cnc(Cl)c(-c2ccn3nc(N)nc3c2)c1)c1ccccc1OC(F)(F)F [Example 370] ?
20 to 200 nM

----------
# target: His-GST-TVMV-hRIPK1(1-324) (Homo sapiens, UniProt Q13546)
# Construct: The coding region of human RIPK1(1-324) flanked by NdeI site at 5′ end; made in house; host or cells: Spodoptera frugiperda (Sf9) insect cells, baculovirus
# Sequence (Q13546 1-324): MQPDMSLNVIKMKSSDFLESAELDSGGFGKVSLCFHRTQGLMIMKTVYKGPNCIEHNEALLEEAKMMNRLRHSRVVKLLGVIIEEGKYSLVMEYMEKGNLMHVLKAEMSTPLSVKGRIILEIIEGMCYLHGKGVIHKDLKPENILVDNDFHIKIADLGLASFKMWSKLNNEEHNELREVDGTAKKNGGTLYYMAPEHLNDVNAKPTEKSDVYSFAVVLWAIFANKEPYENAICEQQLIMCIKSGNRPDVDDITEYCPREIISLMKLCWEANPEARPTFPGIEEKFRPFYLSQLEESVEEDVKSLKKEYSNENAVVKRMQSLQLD
# test.name: RIPK1 HTRF Binding Assay
# condition: x marks IC50 class <20 nM; read-out: RIPK1 HTRF binding <20 nM
Reported IC50 values are given for each entry in this list.

                                   compound  data_value
0  Cc1ncc(-c2ccn3nc(N)nc3c2)cc1C(=O)NCc1cc(F)cc(F)c1OCC1CCCC1     < 20 nM

Proceed to the following item.
Quick check: IC50 of COc1ncc(-c2ccn3nc(N)nc3c2)cc1C(=O)NCc1cnccc1OC1CCCC1 ?
< 20 nM

----------
# target: His-GST-TVMV-hRIPK1(1-324) (Homo sapiens, UniProt Q13546)
# Construct: The coding region of human RIPK1(1-324) flanked by NdeI site at 5′ end; made in house; host or cells: Spodoptera frugiperda (Sf9) insect cells, baculovirus
# test.name: RIPK1 HTRF Binding Assay
# condition: x marks IC50 class <20 nM; read-out: RIPK1 HTRF binding <20 nM
# Experimental: The plate was incubated at rt for 1 h. Cloning and Baculovirus Expression of RIPK1 Construct Baculovirus was generated for the construct using the Bac-to-Bac baculovirus expression system (Invitrogen) according to the manufacturer's protocol. Briefly, recombinant bacmid was isolated from transformed DH10Bac E. coli competent cells (Invitrogen) and used to transfect Spodoptera frugiperda (Sf9) insect cells (Invitrogen). […]
pIC50: −log10 of the molar value.
Measured pIC50 accompanies every entry in the list below.

>>> df
                                   compound                                    target  observed_property  data_value
0  Cc1cnc(-c2ccn3nc(N)nc3c2)cc1C(=O)N[C@H](C)c1cc(OC(F)(F)F)ccc1F [Example 392]  His-GST-TVMV-hRIPK1(1-324) (Homo sapiens, UniProt Q13546)              pIC50      > 7.70
1  CCOc1ncc(-c2ccn3nc(N)nc3c2)cc1C(=O)NCc1ccccc1OCC1CC1 [Example 272]  His-GST-TVMV-hRIPK1(1-324) (Homo sapiens, UniProt Q13546)              pIC50      > 7.70
2  Nc1nc2cc(-c3cnc(Cl)c(C(=O)NCc4cccc(OC(F)(F)F)c4)c3)ccn2n1 [Example 167]  His-GST-TVMV-hRIPK1(1-324) (Homo sapiens, UniProt Q13546)              pIC50      > 7.70
3  COc1ncc(-c2ccn3nc(N)nc3c2)cc1C(=O)NC(C)c1cc(OC(F)(F)F)ccc1F (single isomer, unassigned) [Example 89-2]  His-GST-TVMV-hRIPK1(1-324) (Homo sapiens, UniProt Q13546)              pIC50      > 7.70
4  COc1ncc(-c2ccn3nc(N)nc3c2)cc1C(=O)NCc1ccc(F)cc1OCC1CC1 [Example 145]  His-GST-TVMV-hRIPK1(1-324) (Homo sapiens, UniProt Q13546)              pIC50      > 7.70
5  COc1ncc(-c2ccn3nc(N)nc3c2)cc1C(=O)NCc1cc(F)cc(F)c1OCC1CC1 [Example 131]  His-GST-TVMV-hRIPK1(1-324) (Homo sapiens, UniProt Q13546)              pIC50      > 7.70

Give pIC50 (His-GST-TVMV-hRIPK1(1-324) (Homo sapiens, UniProt Q13546)) of the following compound: COc1ncc(-c2ccn3nc(N)nc3c2)cc1C(=O)N(C)Cc1cccc(OC(F)(F)F)c1 [Example 162]
> 7.70

// data source = patent US10913738B2
